Across several publications, the following Ki results were reported for Substance-K receptor (Homo sapiens, UniProt P21452).
measurement name: Ki (nM)

A. O=C(Nc1ccc(Oc2ccccc2)cc1)N[C@H](Cc1ccccc1)C(=O)NCCCN1CCOCC1
B. CO/N=C(\COCc1cc(C(F)(F)F)cc(C(F)(F)F)c1)C(CCN1CCN(CC(=O)NCC2CCCO2)CC1)c1ccc(Cl)c(Cl)c1 (centres undefined)
C. O=C(NC1(C(=O)N[C@H](CCCN2CCN(CC3CCOCC3)CC2)Cc2ccccc2)CCCC1)c1cc2ccccc2cn1
D. CCOCCCN1CCN(CCC[C@@H](Cc2ccccc2)NC(=O)C2(NC(=O)c3cc4ccc(C)cc4s3)CCCC2)CC1
Ask: Order the 4 molecules from highest to lowest Ki. Arrange the labels as the request states and list them.
Reply: A, B, C, D
